Reference for the values: ChEMBL document CHEMBL3785069

experiment summary: Cytotoxicity against human HPLF cells after 48 hrs by MTT assay
Assay type: cell-based
metric name: CC50 at 48 h (µM)
Numbers only; they are read as µM.

[ask] Which value of CC50 at 48 h has been reported for COCCSCCC(=O)N1C/C(=C\c2ccccc2)C(=O)/C(=C/c2ccccc2)C1 in the records?
[reply] 7.58

[ask] Which CC50 at 48 h is reported for this compound? N[C@@H](Cc1ccc(N(CCCl)CCCl)cc1)C(=O)O
[reply] 77.1

[ask] Looking for the measured CC50 at 48 h of COCCOCCC(=O)N1C/C(=C\c2ccccc2)C(=O)/C(=C/c2ccccc2)C1 , can you help?
[reply] 8.84

[ask] Which CC50 at 48 h reading was recorded for the compound COCC[S+]([O-])CCC(=O)N1C/C(=C\c2ccc(F)cc2)C(=O)/C(=C/c2ccc(F)cc2)C1 (centres undefined) ?
[reply] 4.21

* * *

experiment summary: Cytotoxicity against human HSC3 cells after 48 hrs by MTT assay
Format: functional
experimental conditions: HSC-3, 48 h
Field: CC50. Provide a value for each of the compounds that follow.
Respond with the bare value in nM.

[ask] Fill blank: measured CC50 of the compound COCCSCCC(=O)N1C/C(=C\c2ccc([N+](=O)[O-])cc2)C(=O)/C(=C/c2ccc([N+](=O)[O-])cc2)C1 is ____.
[reply] 390

[ask] Look up CC50 for this compound: COCCSCCC(=O)N1C/C(=C\c2ccc(C)cc2)C(=O)/C(=C/c2ccc(C)cc2)C1
[reply] 1700

[ask] Find the recorded CC50 belonging to COCCS(=O)(=O)CCC(=O)N1C/C(=C\c2ccccc2)C(=O)/C(=C/c2ccccc2)C1 and report it.
[reply] 1190

[ask] Dear colleague, I am looking for the recorded CC50 of the following compound: COCCSCCC(=O)N1C/C(=C\c2ccc(F)cc2)C(=O)/C(=C/c2ccc(F)cc2)C1
[reply] 1190

* * *

experiment summary: Cytotoxicity against human HPLF cells after 48 hrs by MTT assay
Format: cell-based
Consider the following molecules; for each one, report its CC50 at 48 h.
A number alone suffices; assume µM.

[ask] I'd like to know its CC50 at 48 h. The molecule in question is COCCSCCC(=O)N1C/C(=C\c2ccc(OC)c(OC)c2)C(=O)/C(=C/c2ccc(OC)c(OC)c2)C1
[reply] 8.07

[ask] Item COCCS(=O)(=O)CCC(=O)N1C/C(=C\c2ccccc2)C(=O)/C(=C/c2ccccc2)C1 has what recorded CC50 at 48 h?
[reply] 8.43

[ask] Form field: reported CC50 at 48 h of COCC[S+]([O-])CCC(=O)N1C/C(=C\c2ccccc2)C(=O)/C(=C/c2ccccc2)C1 (stereo not given)
[reply] 9.1

[ask] So what does the record say about CC50 at 48 h for COCCSCCC(=O)N1C/C(=C\c2ccc(OC)cc2)C(=O)/C(=C/c2ccc(OC)cc2)C1 ?
[reply] 15.5

[ask] Name the reported CC50 at 48 h value associated with the molecule COCCSCCC(=O)N1C/C(=C\c2ccc(C)cc2)C(=O)/C(=C/c2ccc(C)cc2)C1
[reply] 9.17

* * *

experiment summary: Cytotoxicity against human HSC4 cells after 48 hrs by MTT assay
Assay type: functional
experimental conditions: HSC-4, 48 h
metric name: CC50 (µM)
Report as a plain number; the unit µM is understood.

[ask] Entry N[C@@H](Cc1ccc(N(CCCl)CCCl)cc1)C(=O)O [MELPHALAN] : reported CC50 = ?
[reply] 11.1

[ask] Give its CC50 value. Item: COCCSCCC(=O)N1C/C(=C\c2ccc(C)cc2)C(=O)/C(=C/c2ccc(C)cc2)C1
[reply] 1.2

[ask] I have this compound here, COCCS(=O)(=O)CCC(=O)N1C/C(=C\c2ccccc2)C(=O)/C(=C/c2ccccc2)C1 , and I need its recorded CC50.
[reply] 1.3

[ask] Consider the compound COCCOCCC(=O)N1C/C(=C\c2ccccc2)C(=O)/C(=C/c2ccccc2)C1 and give its measured CC50.
[reply] 1.22

[ask] Would you mind telling me what CC50 value was observed for COCC[S+](C)CCC(=O)N1C/C(=C\c2ccccc2)C(=O)/C(=C/c2ccccc2)C1.F[B-](F)(F)F (stereo not drawn) ?
[reply] 1.36

[ask] Give its CC50 value. Item: COCC[S+]([O-])CCC(=O)N1C/C(=C\c2ccccc2)C(=O)/C(=C/c2ccccc2)C1 (stereo not drawn)
[reply] 1.02

[ask] Entry under review: COCCSCCC(=O)N1C/C(=C\c2ccc(F)cc2)C(=O)/C(=C/c2ccc(F)cc2)C1 . Reported CC50?
[reply] 0.56

[ask] What value of measured CC50 is listed for COCCSCCC(=O)N1C/C(=C\c2ccc([N+](=O)[O-])cc2)C(=O)/C(=C/c2ccc([N+](=O)[O-])cc2)C1 ?
[reply] 0.3
